Taken from patent US20100221398A1.

Tested on: PadA1 activity in A. niger conidiospores
protocol.description: 4-MCA cloud disappearance (OD 600 nm) assay for PadA1 activity in mould spores
Format: cell-based, Aspergillus niger
condition.notes: 1 mM 4-methylcinnamic acid + 1 mM putative inhibitor, 10^6 conidiospores/ml, ACM pH 4.0, 28 C, samples at 5 and 72 hours
reported.endpoint: inhibition of degradation of 4-MCA by germinating conidiospores of A. niger

chemical.structure: O=C(O)C#Cc1ccccc1
obs.value: inhibited degradation

chemical.structure: O=CC#Cc1ccccc1
obs.value: inhibited degradation
